Quick record: AC50, Equilibrative nucleoside transporter 1 (Homo sapiens, UniProt Q99808).
READOUT_NAME: AC50

COMPOUND | READOUT_NAME | ASSAY_RESULT
O=C(O)Cc1ccccc1Nc1c(Cl)cccc1Cl | AC50 | > 30 µM
COc1ccc(C2C(=O)c3ccccc3C2=O)cc1 | AC50 | > 10 µM
CCCCOc1ccc(C(=O)CCN2CCCCC2)cc1 | AC50 | > 30 µM
Cn1c(=O)c2c(ncn2CCOC(=O)C(C)(C)Oc2ccc(Cl)cc2)n(C)c1=O [THEOFIBRATE] | AC50 | > 30 µM
NC(=O)NC(=O)Cc1ccccc1 [PHENACEMIDE] | AC50 | > 10 µM
COc1ccc(CN2CCN(C(c3ccc(F)cc3)c3ccc(F)cc3)CC2)c(OC)c1OC | AC50 | > 30 µM
CCc1nc(N)nc(N)c1-c1ccc(Cl)cc1 | AC50 | > 30 µM
CCCSc1nc(N[C@@H]2C[C@H]2c2ccc(F)c(F)c2)c2nnn([C@@H]3C[C@H](OCCO)[C@@H](O)[C@H]3O)c2n1 | AC50 | 0.365 µM
COc1ccccc1OC1(C)OC(=O)c2ccccc2O1 (centres undefined) | AC50 | > 30 µM

---

MEASUREMENT_TARGET: UniProt:P15207
Sequence (P15207 whole entry): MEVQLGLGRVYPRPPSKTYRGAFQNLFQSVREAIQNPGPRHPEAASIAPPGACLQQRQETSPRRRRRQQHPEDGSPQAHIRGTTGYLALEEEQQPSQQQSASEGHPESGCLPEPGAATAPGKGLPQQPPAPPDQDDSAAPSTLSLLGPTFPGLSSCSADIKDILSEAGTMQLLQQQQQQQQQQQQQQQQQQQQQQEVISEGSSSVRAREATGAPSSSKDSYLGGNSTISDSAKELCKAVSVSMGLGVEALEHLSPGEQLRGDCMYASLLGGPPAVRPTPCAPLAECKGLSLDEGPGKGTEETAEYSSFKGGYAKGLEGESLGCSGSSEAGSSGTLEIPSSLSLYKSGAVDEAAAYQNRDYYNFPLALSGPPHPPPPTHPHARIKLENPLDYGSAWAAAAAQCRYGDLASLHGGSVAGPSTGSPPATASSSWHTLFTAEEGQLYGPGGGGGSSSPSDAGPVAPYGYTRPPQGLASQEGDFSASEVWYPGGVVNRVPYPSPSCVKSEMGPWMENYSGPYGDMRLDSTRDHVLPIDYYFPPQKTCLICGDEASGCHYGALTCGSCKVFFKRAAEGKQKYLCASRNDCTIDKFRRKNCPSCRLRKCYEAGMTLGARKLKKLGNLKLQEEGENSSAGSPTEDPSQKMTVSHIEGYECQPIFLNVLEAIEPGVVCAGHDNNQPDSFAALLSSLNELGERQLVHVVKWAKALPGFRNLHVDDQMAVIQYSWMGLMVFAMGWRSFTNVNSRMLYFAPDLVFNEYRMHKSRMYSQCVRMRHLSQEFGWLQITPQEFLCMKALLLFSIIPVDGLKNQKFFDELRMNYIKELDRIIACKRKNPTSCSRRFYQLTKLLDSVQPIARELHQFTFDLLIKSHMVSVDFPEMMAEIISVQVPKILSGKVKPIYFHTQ
Type: functional
Where a SMILES comes first, the peptide text is derived from it. [ ]: non-standard residue; d: D form. pGlu = O=C1CC[C@@H](C(=O)O)N1; Thz = O=C(O)[C@@H]1CSCN1
Each entry below lists one item and its recorded AC50 value.

MOLECULE | MEASUREMENT_TARGET | AC50
CCC(=O)O[C@]1(C(=O)CCl)[C@@H](C)C[C@H]2[C@@H]3CCC4=CC(=O)C=C[C@]4(C)[C@@]3(F)[C@@H](O)C[C@@]21C [CLOBETASOL PROPIONATE] | UniProt:P15207 | 27 µM
CN(C)C/C=C/C(=O)Nc1cc2c(Nc3ccc(F)c(Cl)c3)ncnc2cc1O[C@H]1CCOC1 | UniProt:P15207 | > 30 µM
CCCN1CC(NS(=O)(=O)N(CC)CC)CC2Cc3c(O)cccc3CC21 (stereo not given) [QUINAGOLIDE] | UniProt:P15207 | > 30 µM
CCC(NC(C)C)C(O)c1ccc(O)c2[nH]c(=O)ccc12 (stereo not given) | UniProt:P15207 | > 30 µM
CC/C=C\C/C=C\C/C=C\C/C=C\C/C=C\CCCC(=O)OCC | UniProt:P15207 | 23 µM
CC(C(=O)O)c1ccc2c(c1)CC(=O)c1ccccc1S2 (stereo not given) | UniProt:P15207 | > 30 µM
CCN1CCCC1CNC(=O)c1cc(S(=O)(=O)CC)ccc1OC (stereo not given) [SULTOPRIDE] | UniProt:P15207 | > 30 µM
O=C1OC(OC(=O)c2cccnc2Nc2cccc(C(F)(F)F)c2)c2ccccc21 (stereo not given) [TALNIFLUMATE] | UniProt:P15207 | > 30 µM
CC(C)N(CCCCOCC(=O)O)c1cnc(-c2ccccc2)c(-c2ccccc2)n1 | UniProt:P15207 | 19 µM
C[N+](C)(C)CCOP(=O)([O-])OC[C@H](O)CO | UniProt:P15207 | > 30 µM
c1ccc(C2(N3CCCCC3)CCCCC2)cc1 | UniProt:P15207 | > 30 µM
O=C1CC[C@@H](C(=O)N2CSC[C@H]2C(=O)O)N1 [PIDOTIMOD] ([pGlu]-[Thz]-OH) | UniProt:P15207 | > 30 µM
OC[C@H]1O[C@@H](Oc2cc(O)cc(/C=C/c3ccc(O)cc3)c2)[C@H](O)[C@@H](O)[C@@H]1O | UniProt:P15207 | > 30 µM
CCC1(c2ccc(N)cc2)CCC(=O)NC1=O (stereo not given) [AMINOGLUTETHIMIDE] | UniProt:P15207 | > 30 µM
C=CCN1CCc2nc(N)sc2CC1 [TALIPEXOLE] | UniProt:P15207 | > 30 µM
O=S1(=O)CCN(CN2CCS(=O)(=O)NC2)CN1 | UniProt:P15207 | > 30 µM
CCOC(=O)c1c(CSc2ccccc2)n(C)c2cc(Br)c(O)c(CN(C)C)c12 | UniProt:P15207 | > 30 µM
CCOC(=O)c1ncn2c1CN(C)C(=O)c1cc(F)ccc1-2 | UniProt:P15207 | > 30 µM
Clc1ccc(CCC(Cn2ccnc2)Sc2c(Cl)cccc2Cl)cc1 (stereo not given) | UniProt:P15207 | 9.2 µM
CCOC(=O)[C@@H](N)Cc1ccc(-c2cc(O[C@H](c3ccc(Cl)cc3-n3ccc(C)n3)C(F)(F)F)nc(N)n2)cc1 | UniProt:P15207 | > 30 µM
CCOC(=O)C1=C(C)NC(C)=C(C(=O)OCC)C1c1ccccc1/C=C/C(=O)OC(C)(C)C | UniProt:P15207 | > 30 µM
COc1cc(C(=O)OCc2cccc(COC(=O)c3cc(OC)c(OC)c(OC)c3)n2)cc(OC)c1OC | UniProt:P15207 | > 30 µM
COc1ccccc1OC1(C)OC(=O)c2ccccc2O1 (stereo not given) | UniProt:P15207 | > 30 µM
CC(C(=O)O)c1ccc2oc(-c3ccc(Cl)cc3)nc2c1 (stereo not given) | UniProt:P15207 | > 30 µM
CNCCc1ccc(OC(=O)C(C)C)c(OC(=O)C(C)C)c1 | UniProt:P15207 | > 30 µM
